Consider the following molecules; for each one, report its composite z-score.
molecular target: Alpha-bungarotoxin (Bungarus multicinctus); assay: compounds binding labelled alpha-BTX control protein – biochemical, small-molecule microarray, Alexa647 label, 635/667 nm fluorescence, artefact control for SMM control protein annotation, profiling panel (AID 1117); conditions: alpha-BTX-A647 binding fluorescence, higher = more signal
// no unit string in output, number only

Q: Determine from records and report composite z-score for COCCOC(=O)N1C(=O)[C@@]2(c3cc(C#Cc4ccc(OC)cc4)ccc31)[C@H](c1ccc(OCCO)cc1)N1[C@H](c3ccccc3)[C@H](c3ccccc3)OC(=O)[C@H]1[C@@H]2C(=O)N1CCc2cc(OC)c(OC)cc2C1
Ans: 0.571

Q: Give the reported value of composite z-score for this record: [N-]=[N+]=NCc1ccccc1C[C@]1(C(=O)NCCN2CCOCC2)N=C(c2ccc(OCCCO)cc2)O[C@H]1c1ccccc1CN=[N+]=[N-]
Ans: 1.28

Q: Output measured composite z-score for this item: [N-]=[N+]=NCc1ccccc1C[C@]1(C(=O)NCc2ccccc2)COC(c2ccc(OCCCO)cc2)=N1
Ans: 0.188

Q: Report composite z-score for COc1ccc([Si](C)(C)[C@@H]2[C@@H](CCO)O[C@]3(C(=O)N(Cc4cccc(N5CCCCC5=O)c4)c4ccccc43)[C@H]2C)cc1
Ans: 0.836

Q: Return composite z-score for the following molecule: CN(C)CCCC[C@@H]1NC(=O)[C@@H]2C[C@H](C(=O)NCc3ccc(F)cc3)[C@H](c3cccc(OCCO)c3)N2C1=O
Ans: 0.356

Q: Quickly give me recorded composite z-score for Cc1ccc(F)cc1S(=O)(=O)N[C@@H]1CCN(Cc2ccc(C(F)(F)F)cc2)C1
Ans: -0.536

Q: Recall and state the measured composite z-score for CN1C(=O)C2C=CC(C(O)c3ccccc3)N(NC(=O)OC(C)(C)C)C2C1=O (configuration not stated) .
Ans: 0.966

----------
assay: probe aNog binding to arrayed compounds – biochemical, biotinylated probe, 635/667 nm fluorescence, primary screen (AID 1115); conditions: small-molecule microarray, higher = more signal;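 note: probe is biotinylated aNog protein used at 0.15 µg/mL for 1 h at 4 C; z-score combines 667 nm fluorescence of each spot with its signal to noise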
Use 0.2 as the dividing line for composite z-score, with the line itself on the TRUE side and lower values as FALSE.

Q: Is reported composite z-score greater than or equal to 0.2 here: NC(=O)NCC#Cc1ccc2c(c1)[C@]1(C(=O)N2)[C@H](c2ccc(O)cc2)N2[C@H](c3ccccc3)[C@H](c3ccccc3)OC(=O)[C@H]2[C@@H]1C(=O)N1CCN(c2ncccn2)CC1
Ans: TRUE

Q: Check this compound for composite z-score at or above 0.2: [N-]=[N+]=NCc1ccccc1C[C@]1(C(=O)NCCN2CCOCC2)N=C(c2ccc(OCCCO)cc2)O[C@H]1c1ccccc1CN=[N+]=[N-]
Ans: FALSE

Q: Exam item: decide whether the reported composite z-score for C=CCC(OC(C)=O)[C@@H]1[C@@H](N(Cc2cc3ccccc3o2)C(=O)c2cccc3ccccc23)c2cc(OCCCO)ccc2N1C(=O)Cc1ccc2ccccc2c1 (some centres not stated) is at least 0.2.
Ans: FALSE

Q: Is reported composite z-score greater than or equal to 0.2 here: C[C@]1(C(=O)NCC(F)(F)F)c2ccccc2C(=O)N(Cc2cc(F)cc(C(F)(F)F)c2)[C@H]1c1ccc(CO)cc1
Ans: TRUE

Q: Form field: composite z-score at least 0.2? Entry: COc1cc2c(cc1O)C(c1ccc(CN3CCCC3)cc1)N(Cc1sc3ccccc3c1Cl)CC2 (configuration not stated)
Ans: FALSE

Q: Evaluate CCN(CC)c1ccc(N2CC=CC34O[C@@H]5/C=C\CCC(C)OC(=O)C5[C@H]3C(=O)N(CCCCCCO)[C@@H]4C2=O)cc1 (some centres not stated) : composite z-score at minimum 0.2?
Ans: FALSE

Q: Reported composite z-score at or above 0.2? CC(C)[Si]1(C(C)C)O[C@@H](c2ccccc2)c2cc(-c3ccc(-c4ccc(Cl)c(Cl)c4)o3)nc(CCc3ccccc3)c21
Ans: FALSE

----------
assay: small molecules captured by biotinylated probe aFGF10 – biochemical, small-molecule microarray, fluorescence 635/667, stem cell growth factor project, primary screen (AID 1071); conditions: higher = more signal;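 note: score merges 667 nm spot intensity and signal to noise from triplicate slides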
assayEndpoint: composite z-score
Give a plain numeric answer without units written out.

Q: Tell me composite z-score reported for COCCOC(=O)N1C(=O)[C@@]2(c3cc(C#Cc4ccc(OC)cc4)ccc31)[C@H](C(N)=O)[C@H]1C(=O)O[C@H](c3ccccc3)[C@H](c3ccccc3)N1[C@@H]2c1ccc(O)cc1
Ans: -0.206

Q: Name the recorded composite z-score of the item C=CCOC(=O)[C@@H]1[C@H]2C(=O)O[C@H](c3ccccc3)[C@H](c3ccccc3)N2[C@H](c2ccc(OCCOC(=O)[C@H]3C[C@H]4C(=O)N[C@@H](Cc5ccccc5)C(=O)N4[C@H]3c3ccc(O)cc3)cc2)[C@@]12C(=O)Nc1ccc(I)cc12 in your answer.
Ans: 0.459

Q: Supply reported composite z-score belonging to this molecule: C=C(C(=O)CC[C@@H](OC(=O)c1cccnc1)c1ccc(OCCO)cc1)C(C)C
Ans: 1.27

Q: // fetch composite z-score given entry COc1cc(NN2C(C(O)c3ccccc3)C=CC3C(=O)N(c4ccccc4)C(=O)C32)cc(OC)c1OC (stereo unspecified)
Ans: 1.13

Q: Indicate the recorded composite z-score value for this molecule: [N-]=[N+]=NCc1ccccc1C[C@]1(C(=O)NCCN2CCOCC2)N=C(c2ccc(OCCCO)cc2)O[C@H]1c1ccccc1CN=[N+]=[N-]
Ans: 1.12

Q: Complete the entry with composite z-score for CCCC[C@H]1OB(O)C[C@H]2C1=C(COc1ccccc1)C[C@H]1C(=O)N(Cc3ccccc3)C(=O)[C@H]12
Ans: 0.418

Q: Provide measured composite z-score value, entry: C=CCN1C(=O)[C@]2(COC(c3ccc(OCCCO)cc3)=N2)Cc2ccccc21
Ans: 0.115

Q: Could you please provide reported composite z-score for C=C(C(=O)CC[C@@H](OC(=O)c1cccnc1)c1ccc(CO)o1)C(C)C ? Thanks!
Ans: 0.715

Q: Report composite z-score for COc1ccc(C(O)C2C=CC3C(=O)N(c4ccccc4)C(=O)C3N2Nc2ccccc2)c2ccccc12 (stereo unspecified)
Ans: 0.354

Q: Note composite z-score for the molecule shown: O=C1C[C@@](C(=O)O)(c2ccc([N+](=O)[O-])cc2)[C@@H](c2ccc(CO)cc2I)N1CC12CC3CC(CC(C3)C1)C2
Ans: 0.14

Q: Give composite z-score for the following molecule: CCCNC(=O)[C@@]1(C)c2ccccc2C(=O)N(Cc2cc(F)cc(C(F)(F)F)c2)[C@H]1c1ccc(CO)cc1
Ans: -0.104

Q: Identify the reported composite z-score for the following entry. CC(C)[Si]1(C(C)C)O[C@@H](c2ccccc2)c2cc(-c3ccc(-c4ccc(Cl)c(Cl)c4)o3)nc(CCc3ccccc3)c21
Ans: -0.641

Q: Give the reported composite z-score for this molecule. C=CCC(OC(C)=O)[C@@H]1[C@@H](N(Cc2cc3ccccc3o2)C(=O)c2ccc(C)cc2)c2cc(OCCCO)ccc2N1C(=O)c1ccc(-c2ccccc2)cc1 (stereo partly specified)
Ans: 0.18

Q: Identify composite z-score associated with the molecule O=C1OCC=C[C@H]2OC34C=CCN(CCN5CCOCC5)C(=O)[C@H]3N(CCCCCCO)C(=O)[C@@H]4[C@@H]12 (stereo partly specified)
Ans: 0.0266

Q: Find the measured composite z-score of O=C1O[C@@H](c2ccccc2)[C@@H](c2ccccc2)N2[C@@H](c3ccccc3OCCO)[C@]3(C(=O)Nc4ccc(C#CC5(O)CCCCCC5)cc43)[C@@H](C(=O)NC[C@H](O)c3ccccc3)[C@H]12 and report it.
Ans: 1.03

Q: # return recorded composite z-score for input COc1ccc(C(=O)Nc2cccc(CN3C(=O)[C@@]4(O[C@@H](CC(=O)N5Cc6ccccc6C[C@H]5CO)[C@H]([Si](C)(C)c5ccc(OC)cc5)[C@H]4C)c4ccccc43)c2)cc1
Ans: 0.505

Q: Recall and state the measured composite z-score for C=CCOC(=O)[C@@H]1[C@H]2C(=O)O[C@H](c3ccccc3)[C@H](c3ccccc3)N2[C@H](c2ccc(OCCOC(=O)[C@H]3C[C@H]4C(=O)N[C@@H](CCCC[N+](C)(C)C)C(=O)N4[C@H]3c3cccc(OCCO)c3)cc2)[C@@]12C(=O)Nc1ccc(I)cc12 .
Ans: 0.651

Q: Determine from records and report composite z-score for COCCCNC(=O)[C@@]1(Cc2ccccc2I)c2ccccc2C(=O)N(Cc2ccccc2)[C@H]1c1ccc(CO)cc1
Ans: -0.487

Q: Return reported composite z-score. Input molecule: COC(=O)[C@@]1(Cc2ccc(F)cc2)[C@H]2c3cc(C(=O)N(C)C)n(CCc4c[nH]c5ccc(OC)cc45)c3C[C@H]2CN1C(=O)c1ccccc1
Ans: 0.175

Q: Fill in composite z-score for record C=C(/C(=C/C[C@@H](OC(=O)c1ccncc1)c1ccc(CO)o1)c1cc(C(=O)OC)ccc1OC)C(C)C
Ans: 0.901

Q: Fill in composite z-score for record O=C1O[C@H](c2ccccc2)[C@H](c2ccccc2)N2[C@H]1[C@@H](C(=O)NC[C@H](O)c1ccccc1)[C@]1(C(=O)Nc3ccc(C#CC4=CCCCC4)cc31)[C@H]2c1ccc(O)cc1
Ans: 0.962

Q: Tell me measured composite z-score for Cc1c(NC(=O)/C(C#N)=C/C=C/c2ccccc2)c(=O)n(-c2ccccc2)n1C please.
Ans: 0.286

Q: Supply reported composite z-score belonging to this molecule: CN(C)CCCC[C@@H]1NC(=O)[C@H]2C[C@@H](C(=O)NCCCCCNC(=O)CS)[C@@H](c3ccc(O)cc3)N2C1=O
Ans: -0.122

Q: Provide composite z-score value for the following molecule: COCCOC(=O)N1C(=O)[C@@]2(c3cc(C#CCCO)ccc31)[C@H](c1ccc(O)cc1)N1[C@H](c3ccccc3)[C@H](c3ccccc3)OC(=O)[C@H]1[C@@H]2C(=O)N1CCCCCCC1
Ans: 1.04

Q: Quickly give me recorded composite z-score for CCOC1=C2C(c3ccc(C)cc3)N(S(=O)(=O)c3ccc(C)cc3)CC2n2c(=O)n(-c3ccccc3)c(=O)n2C1 (stereo unspecified)
Ans: 0.94

Q: Supply reported composite z-score belonging to this molecule: COC(=O)[C@@]1(Cc2ccccc2)[C@H]2c3cc(C(=O)N(C)C)n(Cc4cc(F)c(F)c(F)c4)c3C[C@H]2CN1C(=O)c1ccccc1
Ans: 1.23
